Target: tubulin (Sus scrofa, UniProt P02550+P02554)
Construct: prepared in-house from porcine brain using a standard procedure involving cycles of polymerization/de-polymerization; from tissue; host or cells: porcine brain
Sequence (P02550 whole entry): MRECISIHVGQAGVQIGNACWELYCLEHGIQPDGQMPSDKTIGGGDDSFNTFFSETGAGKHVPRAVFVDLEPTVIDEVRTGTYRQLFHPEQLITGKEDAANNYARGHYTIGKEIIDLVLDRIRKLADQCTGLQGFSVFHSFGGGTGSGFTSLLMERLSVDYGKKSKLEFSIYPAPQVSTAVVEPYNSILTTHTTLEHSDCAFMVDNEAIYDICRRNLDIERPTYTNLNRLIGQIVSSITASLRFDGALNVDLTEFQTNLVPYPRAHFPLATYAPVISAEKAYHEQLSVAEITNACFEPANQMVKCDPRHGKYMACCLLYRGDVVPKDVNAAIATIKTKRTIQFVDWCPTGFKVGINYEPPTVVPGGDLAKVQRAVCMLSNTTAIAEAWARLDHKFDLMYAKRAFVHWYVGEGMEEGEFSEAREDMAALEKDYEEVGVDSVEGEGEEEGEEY
Sequence (P02554 whole entry): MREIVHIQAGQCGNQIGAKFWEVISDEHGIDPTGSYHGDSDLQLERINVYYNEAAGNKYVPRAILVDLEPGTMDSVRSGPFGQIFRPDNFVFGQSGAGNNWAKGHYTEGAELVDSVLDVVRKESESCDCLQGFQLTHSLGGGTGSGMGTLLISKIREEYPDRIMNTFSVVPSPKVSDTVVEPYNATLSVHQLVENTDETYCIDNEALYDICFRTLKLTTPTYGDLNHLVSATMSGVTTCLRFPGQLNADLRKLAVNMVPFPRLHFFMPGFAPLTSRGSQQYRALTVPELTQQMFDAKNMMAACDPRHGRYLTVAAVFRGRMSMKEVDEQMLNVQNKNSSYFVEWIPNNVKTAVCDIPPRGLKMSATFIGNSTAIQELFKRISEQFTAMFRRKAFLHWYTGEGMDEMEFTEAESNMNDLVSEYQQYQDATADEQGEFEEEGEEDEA
Assay: Inhibition of in vitro tubulin polymerization
Assay type: biochemical, porcine
Conditions: final absorbance 340 nm at 90 min
Procedure: […] Experiments were carried out on a Safire^2™ monochromator (Tecan) preset to a stable temperature of 37° C.; the degree of polymerization was determined by measuring the absorbance of the solutions at 340 nm every minute over the 90 min cycle. Reported inhibition values were based on the final absorbance at 90 min and calculated with reference to a vehicle control (0.5% DMSO) using the minimum and maximum signals obtained for this sample.
metric: inhibition at 10 µM

[
  {
    "smiles input": "COc1ccc(S(=O)(=O)Nc2cc(-c3cc(C#N)cs3)ccc2C)cc1",
    "inhibition at 10 µM": "> 50%"
  },
  {
    "smiles input": "COc1ccc(S(=O)(=O)Nc2cc(-c3c(C)noc3C)ccc2C)cc1",
    "inhibition at 10 µM": "20 to 50%"
  },
  {
    "smiles input": "Cc1ccc(S(=O)(=O)Nc2cc(-c3ccc(C)s3)ccc2C)cc1",
    "inhibition at 10 µM": "20 to 50%"
  },
  {
    "smiles input": "Cc1ccc(S(=O)(=O)Nc2cc(-c3ccc(C#N)cc3)ccc2C)cc1",
    "inhibition at 10 µM": "< 20%"
  },
  {
    "smiles input": "Cc1ccc(S(=O)(=O)Nc2cc(-c3ccc(C#N)c(C)c3)ccc2C)cc1",
    "inhibition at 10 µM": "< 20%"
  },
  {
    "smiles input": "COc1ccc(S(=O)(=O)Nc2cc(-c3ccc(C#N)cc3)ccc2C)cc1",
    "inhibition at 10 µM": "< 20%"
  },
  {
    "smiles input": "Cc1ccc(S(=O)(=O)Nc2cc(-c3cscc3C)ccc2C)cc1",
    "inhibition at 10 µM": "> 50%"
  }
]

Consider now this further compound.
Q. Using the record for `Cc1ccc(S(=O)(=O)Nc2cc(-c3ccc(C)o3)ccc2C)cc1` , report its inhibition at 10 µM.
A. > 50%
